Target: Neu5Ac(a2-3)[GalNAc(b1-4)]Gal(b1-4)GlcNAc
Experiment: glycan array binding signal (z-score within array); higher = stronger binding
Settings: glycan notation: IUPAC condensed, linker removed
About 410 targets per protein were measured; listed, in parts, are those with the strongest signals and a random draw of the rest.
Consider the following binders and their measured glycan array binding signal (z-score) readings.
Keep it simple and answer with nothing but the number.

Ask | What measured glycan array binding signal (z-score) goes with Tp0751, 83732 (protein) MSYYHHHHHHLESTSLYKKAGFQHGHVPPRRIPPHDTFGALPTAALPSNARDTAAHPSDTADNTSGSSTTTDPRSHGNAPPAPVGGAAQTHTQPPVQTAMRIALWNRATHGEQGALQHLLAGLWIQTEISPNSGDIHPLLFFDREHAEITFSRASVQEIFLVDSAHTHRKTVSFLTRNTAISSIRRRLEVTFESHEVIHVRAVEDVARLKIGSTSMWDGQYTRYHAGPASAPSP ?
Reply | -0.76

Ask | Query PEB3 Cj0289c (Campylobacter jejuni), Q9PIK7 (protein) MDVNLYGPGGPHTALKDIANKYSEKTGVKVNVNFGPQATWFEKAKKDADILFGASDQSALAIASDFGKDFNVSKIKPLYFREAIILTQKGNPLKIKGLKDLANKKVRIVVPEGAGKSNTSGTGVWEDMIGRTQDIKTIQNFRNNIVAFVPNSGSARKLFAQDQADAWITWIDWSKSNPDIGTAVAIEKDLVVYRTFNVIAKEGASKETQDFIAYLSSKEAKEIFKKYGWRE next
Reply | -0.332

Ask | Query Epa23 (Candida glabrata) (protein) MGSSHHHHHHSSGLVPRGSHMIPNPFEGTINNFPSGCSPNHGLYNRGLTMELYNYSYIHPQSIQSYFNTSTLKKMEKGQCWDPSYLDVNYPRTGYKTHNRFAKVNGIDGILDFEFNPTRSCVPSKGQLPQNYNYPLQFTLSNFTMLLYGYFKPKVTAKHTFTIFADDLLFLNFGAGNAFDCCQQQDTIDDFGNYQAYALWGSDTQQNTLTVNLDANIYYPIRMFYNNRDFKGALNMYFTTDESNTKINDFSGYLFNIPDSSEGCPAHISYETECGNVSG next
Reply | -0.198
